# TEST_DESCRIPTION: Metabolic stability in human liver microsomes assessed as compound remaining at 1 uM after 0.5 hrs
# Format: ADME
# CONDITION_DESCRIPTION: read-out: Stability
PROPERTY: remaining at 0.5 h, 1 µM (%)
All answers are understood in %, so give the number only.

**Query** Supply recorded remaining at 0.5 h, 1 µM for C[C@H](c1ccc(F)cc1)N1C(=O)O[C@](Cc2ccccc2)(c2nc3c(NS(C)(=O)=O)cccc3[nH]2)C1=O here.
**Result** 46

**Query** Supply recorded remaining at 0.5 h, 1 µM for C[C@H](c1ccc(F)cc1)N1C(=O)O[C@](Cc2ccccc2)(c2nc3cc(-c4cc[nH]n4)ccc3[nH]2)C1=O here.
**Result** 86

**Query** Supply recorded remaining at 0.5 h, 1 µM for C[C@H](c1ccc(F)cc1)N1C(=O)O[C@](Cc2ccccc2)(c2nc3cc(-c4cccnc4Cl)ccc3[nH]2)C1=O here.
**Result** 64

**Query** Supply recorded remaining at 0.5 h, 1 µM for C[C@H](c1ccc(F)cc1)N1C(=O)O[C@](Cc2ccccc2)(c2nc3cc(-c4cccnc4)ccc3[nH]2)C1=O here.
**Result** 94

**Query** Supply recorded remaining at 0.5 h, 1 µM for C[C@H](c1ccc(F)cc1)N1C(=O)O[C@](Cc2ccccc2)(c2nc3c(Cl)cccc3[nH]2)C1=O here.
**Result** 66

**Query** Supply recorded remaining at 0.5 h, 1 µM for C[C@H](c1ccc(F)cc1)N1C(=O)O[C@](Cc2ccccc2)(c2nc3c(-c4cnn(C)c4)cccc3[nH]2)C1=O here.
**Result** 54

**Query** Supply recorded remaining at 0.5 h, 1 µM for C[C@H](c1ccc(F)cc1)N1C(=O)O[C@](Cc2ccccc2)(c2nc3c(-c4cncnc4)cccc3[nH]2)C1=O here.
**Result** 30
